- Test system: UACC-62 melanoma
- methodSummary: NCI tumour cell line growth inhibition, 48 h

{"compound": "O=S1c2ccccc2N=C(c2cccs2)CC1c1ccccc1O (centres undefined)", "TGI": "> 100 µM"}
{"compound": "COC1C[C@H](O[C@@H]2C[C@H](O[C@@H]3C[C@H](O[C@@H]4C(=O)c5c(cc6cc(O[C@H]7C[C@@H](O[C@H]8C[C@@H](O)[C@H](O)C(C)O8)[C@H](O)C(C)O7)c(C)c(O)c6c5O)C[C@H]4C(OC)C(=O)[C@@H](O)[C@@H](C)O)OC(C)[C@H]3O)OC(C)[C@@H]2O)OC(C)[C@@H]1O (some centres undefined)", "TGI": "0.134 µM"}
{"compound": "CC1=NN(c2ccccc2)C(=O)C1N=Nc1ccc(Br)cc1C (centres undefined)", "TGI": "> 100 µM"}
{"compound": "COc1cc(-c2cc(-c3ccc(Nc4nc(Nc5ccc(Cl)cc5)nc(Nc5ccc(Cl)cc5)n4)cc3)no2)cc(OC)c1OC", "TGI": "> 100 µM"}
{"compound": "Cc1[nH]c(-c2ccccc2)c(O)c1C(=O)OC1CC(C)CCC1C(C)C (centres undefined)", "TGI": "30.9 µM"}
{"compound": "CC(=O)OC1CC[C@@]2(C)C(=CC[C@@H]3[C@@H]2CC[C@]2(C)Nc4c(cnn4-c4ccc(F)cc4)C[C@@H]32)C1 (some centres undefined)", "TGI": "> 71.1 µM"}
{"compound": "CC#CC#C/C=C1/C=CC2(CCCCO2)O1 (centres undefined)", "TGI": "> 100 µM"}
{"compound": "C1=Nc2ccc(cc2)-c2ccc(cc2)N=Cc2ccccc2OCc2cccc(n2)COc2ccccc21", "TGI": "> 100 µM"}
{"compound": "CCc1c[n+]2c(cc1C1=CN3c4ccccc4[C@]45CCN6C/C(=C/CO)[C@H](C[C@H]64)[C@@H]([C@@H]1O)[C@H]35)-c1[nH]c3ccccc3c1CC2", "TGI": "> 50 µM"}
{"compound": "COc1cc(OC)c(OC)cc1/C=C/c1ccc2ccccc2n1", "TGI": "> 10 µM"}
{"compound": "O=C(Nc1ccc(-c2cn3ccccc3n2)cc1)c1cc(Br)ccc1O", "TGI": "> 100 µM"}
{"compound": "Nc1cc2c3ccccc3ccc2c2ccccc12", "TGI": "> 100 µM"}
{"compound": "COC(=O)C1(N2CCOCC2)CCC([C@@H](c2ccccc2)C(C)[N+](=O)[O-])C1 (some centres undefined)", "TGI": "> 100 µM"}
{"compound": "O=C(COc1ccc(Cl)cc1Cl)NNc1ccc([N+](=O)[O-])cc1", "TGI": "> 100 µM"}
{"compound": "Cc1cccc(Nc2ncc(-c3ccccc3)o2)c1", "TGI": "> 25 µM"}
{"compound": "Nc1[nH]c(=S)[nH]c(=O)c1N=Nc1c(Br)cc(S(N)(=O)=O)cc1Br", "TGI": "> 100 µM"}
{"compound": "O=C(C#Cc1ccccc1)N1CCCCC1", "TGI": "> 100 µM"}
{"compound": "[N-]=[N+]=NCCCn1c2c(c3ccccc3c1=O)C(=O)c1cc3c(cc1-2)OCO3", "TGI": "> 100 µM"}
{"compound": "Cc1c(-c2c(F)cc(C(N)=O)c3[nH]c4c(c23)CC[C@H](C(C)(C)O)C4)cccc1-n1c(=O)c2cccc(F)c2n(C)c1=O", "TGI": "> 100 µM"}
{"compound": "O=C1C2=C(c3ccccc31)C(c1ccc([N+](=O)[O-])cc1)NC(=S)N2 (centres undefined)", "TGI": "> 100 µM"}
{"compound": "COc1cc(/C=[N+](\\[O-])c2ccccc2Cl)ccc1OC(=S)S", "TGI": "99.7 µM"}
{"compound": "CCCCCCCC(=O)[O-].N.N.N.N.N.[Co+3].[O-][Cl+3]([O-])([O-])[O-]", "TGI": "> 100 µM"}
{"compound": "O=C(Nc1c(Cl)cccc1Cl)Oc1cccc2cccnc12", "TGI": "10 µM"}
{"compound": "c1ccc(C2SCc3nc4ccccc4n32)cc1 (centres undefined)", "TGI": "> 100 µM"}
{"compound": "COc1cc2cc(C(=O)Nc3ccccc3)c(N)nc2cc1OC", "TGI": "> 100 µM"}
{"compound": "O=C1C2Cc3ccccc3CN2C(=O)N1CN1CCCCC1 (centres undefined)", "TGI": "> 100 µM"}
{"compound": "O=C(N/N=C/c1ccc(O)cc1)NNCCO", "TGI": "> 100 µM"}
{"compound": "COC(=O)C1=C(C(=O)OC)SC2(S1)C(C(=O)OC)=C(C(=O)OC)Sc1c2ssc1=O", "TGI": "1.37 µM"}
{"compound": "COc1ccc(C2[C@@H](Cl)C(=O)N2c2ccc(OC)cc2)cc1 (some centres undefined)", "TGI": "> 100 µM"}
{"compound": "COc1cc2c(cc1OC)C/C(=N\\O)c1cc(OC)c(OC)cc1/C=C\\2", "TGI": "> 58 µM"}
{"compound": "CC(=O)[C@H]1CC[C@@H]2[C@]1(C)CC=C1[C@]23C=C[C@]2(C[C@@H](O)CC[C@]12C)C(C(=O)O)C3C(=O)O (some centres undefined)", "TGI": "> 100 µM"}
{"compound": "Oc1ccccc1-c1cnnc(-c2ccccc2O)c1", "TGI": "34 µM"}
{"compound": "CC(C)C(C=O)C(O)(C(F)(F)F)C(F)(F)F (centres undefined)", "TGI": "> 100 µM"}
{"compound": "CCN1C(=O)N(CC)C2C1NN=c1s/c(=C\\c3ccc(Br)cc3)c(=O)n12 (centres undefined)", "TGI": "> 100 µM"}
{"compound": "Nc1nc(Cl)cc(Oc2ccc(Cl)cc2)n1", "TGI": "> 100 µM"}
{"compound": "Clc1cccc(C=NC23CC4CC(CC(C4)C2)C3)c1Cl", "TGI": "> 10 µM"}
{"compound": "CN1c2cccc[c]2[Sn]([CH3])([CH3])[c]2ccccc21", "TGI": "0.113 µM"}
{"compound": "Cc1nc(-n2nc(-c3ccccc3)cc2-c2ccccc2)sc1C(/C=C\\c1ccc([N+](=O)[O-])cc1)=N/NC(=S)NN", "TGI": "> 57.7 µM"}
{"compound": "CN(CCCNC(=O)c1[nH]nc2c1ccc1ccccc12)CCCNC(=O)c1[nH]nc2c1ccc1ccccc12", "TGI": "21.6 µM"}
